Origin of values: patent US7388017B2

Exercise: state measured pKi for each of the molecules provided.
Molecular target: HCV NS3 protease (Hepatitis C virus genotype 1a)
Construct: more particularly HCV NS3 proteases
Sequence (P27958 1027-1208): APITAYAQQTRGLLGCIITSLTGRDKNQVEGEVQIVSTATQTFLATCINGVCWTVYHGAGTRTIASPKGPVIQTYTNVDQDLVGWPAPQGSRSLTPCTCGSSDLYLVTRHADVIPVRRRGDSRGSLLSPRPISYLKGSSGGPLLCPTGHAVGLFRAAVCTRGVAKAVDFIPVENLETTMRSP
Test: Enzyme inhibition of HCV NS3 serine protease (cleavage of peptide substrate / EDVV AbuC-p-nitroanilide, with or without NS4A)
Format: biochemical
Settings: Enzyme inhibition data; Ki from rate vs [inhibitor] plots, Morrison tight binding competitive inhibition fit; 30 C, pH 7.8; read-out: Ki
pKi: −log10 of the molar value. Starred links: 1 amine or outer side, 2 acyl side, 3 side chain; linkers in the order of their positions; H or OH if unused. Non-standard residues stand in square brackets, D forms with d. Residues, ends and D or L forms follow the SMILES beside them. ξ: configuration not given here. X45 = O=C([C@@H]1C2CC2CN1[*:1])[*:2]; ξAbu = CCC(N)C(=O)O

For each of the items listed, what is its pKi?
1. CCC(C=O)NC(=O)[C@@H]1C2CC2CN1C(=O)[C@@H](NC(=O)[C@@H](NC(=O)[C@H](CC(=O)O)NC(=O)[C@H](CCC(=O)O)NC(C)=O)C(C)C)C(C)C (some centres unmarked) [Compound 198] (Ac-EDVV[X45][ξAbu]-aldehyde)
2. CCC(C=O)NC(=O)C1CC(NC(=O)CCc2ccccc2)CN1C(=O)C(NC(=O)C(NC(=O)c1cnccn1)C(C)C)C(C)C (centres unmarked) [Compound 63]
3. CCC(C=O)NC(=O)C1CC(OCc2ccccc2)CN1C(=O)C(NC(=O)c1cccc2ccccc12)C(C)C (centres unmarked) [Compound 159]
4. CCC(C=O)NC(=O)C1CC(OCc2ccccc2)CN1C(=O)C(NC(=O)c1ccc[nH]1)C(C)C (centres unmarked) [Compound 153]

*A*
["> 6.00", "4.00 to 6.00", "4.00 to 6.00", "4.00 to 6.00"]
